Molecular target: Cytochrome P450 1A2 (Homo sapiens)
Sequence (P05177 whole entry): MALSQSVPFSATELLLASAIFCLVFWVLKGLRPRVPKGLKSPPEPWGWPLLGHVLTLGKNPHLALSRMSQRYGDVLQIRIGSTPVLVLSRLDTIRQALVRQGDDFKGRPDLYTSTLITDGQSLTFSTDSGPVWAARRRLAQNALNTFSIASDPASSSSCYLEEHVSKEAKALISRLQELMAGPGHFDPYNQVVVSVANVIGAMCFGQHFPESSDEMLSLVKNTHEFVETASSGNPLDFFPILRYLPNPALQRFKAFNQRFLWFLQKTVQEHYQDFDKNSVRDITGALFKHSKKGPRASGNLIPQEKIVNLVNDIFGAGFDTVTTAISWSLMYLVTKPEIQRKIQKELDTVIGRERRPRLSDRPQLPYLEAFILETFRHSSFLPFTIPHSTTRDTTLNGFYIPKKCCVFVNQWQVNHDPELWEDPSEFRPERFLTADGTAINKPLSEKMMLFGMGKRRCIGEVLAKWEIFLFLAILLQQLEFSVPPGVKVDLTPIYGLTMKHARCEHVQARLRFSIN
RECORDED METRIC: pIC50
Scale for pIC50: -log10 of concentration given in mol/L; no unit attached.

Reported pIC50 ( COc1ccc2cc(C(=O)OCCN3CCOCC3)oc2c1 ) = 4.77

* * *

species on record: Danio rerio; test: Anti osteoporosis activity in prednisone induced wildtype 3 days post-fertilization AB zebrafish osteoporosis model assessed as increase in bone fluorescence intensity (RVB = 13620 +/- 1692); type: functional
RECORDED METRIC: Flu intensity
// return a plain number; no unit text

[[record]]
given_smiles = "COc1ccc2cc(C(=O)N[C@H](CC(C)C)C(=O)O)oc2c1"
recorded_metric = "Flu intensity"
result = 20236

[[record]]
given_smiles = "COc1ccc2cc(C(=O)NCCN3CCN(C)CC3)oc2c1"
recorded_metric = "Flu intensity"
result = 25904

[[record]]
given_smiles = "COc1ccc2cc(C(=O)OCCN3CCN(C)CC3)oc2c1"
recorded_metric = "Flu intensity"
result = 23765

[[record]]
given_smiles = "COc1ccc2cc(C(=O)N3CCC(c4ccncc4)CC3)oc2c1"
recorded_metric = "Flu intensity"
result = 30379

[[record]]
given_smiles = "COc1ccc2cc(C(=O)NCC(=O)OCCN(C)C)oc2c1"
recorded_metric = "Flu intensity"
result = 26758


Briefly, Flu intensity measured for COc1ccc2cc(C(=O)NCCCCN(C)C)oc2c1 : 25439

* * *

molecular target: hERG (KCNH2) (Homo sapiens, UniProt Q12809); test: Inhibition of human ERG stably expressed in CHO cells at 10 uM by whole-cell patch clamp method relative to control; format: toxicity, cell-based; settings: CHO cells stably expressing human ERG
Sequence (Q12809 whole entry): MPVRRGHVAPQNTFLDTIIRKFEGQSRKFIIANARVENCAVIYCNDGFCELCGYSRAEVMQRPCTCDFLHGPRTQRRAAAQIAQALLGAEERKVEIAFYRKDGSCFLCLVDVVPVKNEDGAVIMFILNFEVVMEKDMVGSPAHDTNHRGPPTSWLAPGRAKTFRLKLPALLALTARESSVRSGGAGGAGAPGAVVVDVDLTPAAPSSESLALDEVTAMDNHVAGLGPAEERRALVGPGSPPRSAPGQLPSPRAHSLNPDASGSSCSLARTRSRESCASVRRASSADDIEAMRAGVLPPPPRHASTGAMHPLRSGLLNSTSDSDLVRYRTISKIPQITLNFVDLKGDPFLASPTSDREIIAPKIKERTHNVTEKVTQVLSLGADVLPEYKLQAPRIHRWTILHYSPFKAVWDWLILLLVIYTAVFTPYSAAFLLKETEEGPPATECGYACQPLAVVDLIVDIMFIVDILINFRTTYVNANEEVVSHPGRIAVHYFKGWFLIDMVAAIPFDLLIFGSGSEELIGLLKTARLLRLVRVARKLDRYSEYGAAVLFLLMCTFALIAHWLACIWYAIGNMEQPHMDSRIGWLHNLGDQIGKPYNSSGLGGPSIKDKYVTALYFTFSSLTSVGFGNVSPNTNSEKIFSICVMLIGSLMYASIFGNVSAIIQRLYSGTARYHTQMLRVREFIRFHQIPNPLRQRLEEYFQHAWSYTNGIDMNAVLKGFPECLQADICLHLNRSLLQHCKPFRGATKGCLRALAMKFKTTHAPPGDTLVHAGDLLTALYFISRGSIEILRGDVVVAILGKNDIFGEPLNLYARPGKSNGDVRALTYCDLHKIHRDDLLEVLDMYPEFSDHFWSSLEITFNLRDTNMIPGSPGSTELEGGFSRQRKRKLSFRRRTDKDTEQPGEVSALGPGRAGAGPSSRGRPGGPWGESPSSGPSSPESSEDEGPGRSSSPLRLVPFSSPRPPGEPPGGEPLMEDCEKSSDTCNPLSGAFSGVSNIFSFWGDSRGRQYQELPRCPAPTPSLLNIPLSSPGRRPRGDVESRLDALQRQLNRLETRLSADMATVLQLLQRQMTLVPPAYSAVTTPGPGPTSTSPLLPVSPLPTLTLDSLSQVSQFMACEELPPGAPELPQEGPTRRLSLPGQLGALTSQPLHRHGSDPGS
RECORDED METRIC: inhibition at 10 µM (%)
Report the value in % with no unit label.

COc1ccc2cc(C(=O)OCCN3CCOCC3)oc2c1 on hERG (KCNH2) (Homo sapiens, UniProt Q12809) gives inhibition at 10 µM = 20.6

* * *

organism: Danio rerio; experiment: Anti osteoporosis activity in prednisone induced wildtype 3 days post-fertilization AB zebrafish osteoporosis model assessed as increase in bone fluorescence intensity (RVB = 13620 +/- 1692); format: functional
RECORDED METRIC: Flu intensity

[[record]]
compound = "COc1ccc2cc(C(=O)NCCN3CCOCC3)oc2c1"
result = 26682

[[record]]
compound = "CCN(CC)CCCNC(=O)c1cc2ccc(OC)cc2o1"
result = 31394

[[record]]
compound = "CC(O)(P(=O)([O-])O)P(=O)([O-])O.[Na+].[Na+] [ETIDRONATE DISODIUM]"
result = 23897

[[record]]
compound = "COc1ccc2cc(C(=O)NCCN3CCCC3)oc2c1"
result = 20961

[[record]]
compound = "COc1ccc2cc(C(=O)NCCN(C)C)oc2c1.CS(=O)(=O)O"
result = 19181


Record COc1ccc2cc(C(=O)OCCN3CCOCC3)oc2c1 . Reported Flu intensity: 33746
